Test system: Cutibacterium acnes
Experiment: Antibacterial activity against Propionibacterium acnes assessed as growth inhibition after 24 hrs by CLSI M11-A8 broth microdilution method
Format: functional
Square brackets hold non-standard residues; d marks the D form. Peptide text beside a SMILES is read from it. * marks the point of attachment. Dha = C=C(N)C(=O)O; X1 = O=C(c1cscn1)*
Endpoint Name: MIC (µg/mL)

Molecule: C=C(NC(=O)C(=C)NC(=O)[C@@H]1CCCN1C(=O)[C@H](C)NC(=O)C(=C)NC(=O)c1cscn1)C(N)=O (X1-[Dha]AP[Dha][Dha]-NH2)
Readout Unit: µg/mL
Measured Result: 8

###

# maps each entry to its MIC
System: Cutibacterium acnes
Test: Antibacterial activity against Propionibacterium acnes assessed as growth inhibition after 24 hrs by CLSI M11-A8 broth microdilution method
Type: functional
Endpoint Name: MIC (µg/mL)

Molecule Smiles: C=C(NC(=O)C(=C)NC(=O)[C@@H]1CCCN1C(=O)[C@H](C)NC(=O)C(=C)NC(=O)c1csc(-c2ccc3c(n2)-c2csc(n2)-c2csc(n2)[C@@H]2CCCN2C(=O)[C@H](Cc2ccc(O)cc2)NC(=O)[C@H]2CSC(=N2)[C@H](Cc2ccccc2)NC(=O)c2csc(n2)[C@H](CC(N)=O)NC(=O)c2nc-3oc2C)n1)C(N)=O
Endpoint Name: MIC
Measured Result: 0.125

Molecule Smiles: C=C(NC(=O)C(=C)NC(=O)[C@@H]1CCCN1C(=O)[C@H](C)NC(=O)C(=C)NC(=O)c1csc(-c2ccc3c(n2)-c2csc(n2)-c2csc(n2)[C@@H]2CCCN2C(=O)[C@H](Cc2ccc(O)cc2)NC(=O)c2csc(n2)[C@H](Cc2ccccc2)NC(=O)c2csc(n2)[C@H](CC(N)=O)NC(=O)c2nc-3oc2C)n1)C(N)=O
Endpoint Name: MIC
Measured Result: 8

###

Assay: Solubility of the compound in water after 48 hrs by spectrophotometer analysis
Assay type: physicochemical
Square brackets hold non-standard residues; d marks the D form. Peptide text beside a SMILES is read from it. * marks the point of attachment. Dha = C=C(N)C(=O)O; X1 = O=C(c1cscn1)*

Molecule: C=C(NC(=O)C(=C)NC(=O)[C@@H]1CCCN1C(=O)[C@H](C)NC(=O)C(=C)NC(=O)c1cscn1)C(N)=O (X1-[Dha]AP[Dha][Dha]-NH2)
Readout Unit: µg/mL
solubility at 48 h: 4660
